target: ΔF508-CFTR (Homo sapiens, UniProt P13569, DEL508-508); construct: host or cells: CFBE41o-, doxycycline-inducible; assay: CFTR cell surface levels using HRP-tagged ΔF508-CFTR expressing CFBE cells, intrinsic corrector capacity; assay type: cell-based; conditions: HRP-tagged ΔF508-CFTR expressing CFBE41o- cells; compound alone (intrinsic corrector capacity); 20 hours at 33° C.; read-out: EC50
Sequence (P13569 with tags, fused parts or gaps DEL508-508): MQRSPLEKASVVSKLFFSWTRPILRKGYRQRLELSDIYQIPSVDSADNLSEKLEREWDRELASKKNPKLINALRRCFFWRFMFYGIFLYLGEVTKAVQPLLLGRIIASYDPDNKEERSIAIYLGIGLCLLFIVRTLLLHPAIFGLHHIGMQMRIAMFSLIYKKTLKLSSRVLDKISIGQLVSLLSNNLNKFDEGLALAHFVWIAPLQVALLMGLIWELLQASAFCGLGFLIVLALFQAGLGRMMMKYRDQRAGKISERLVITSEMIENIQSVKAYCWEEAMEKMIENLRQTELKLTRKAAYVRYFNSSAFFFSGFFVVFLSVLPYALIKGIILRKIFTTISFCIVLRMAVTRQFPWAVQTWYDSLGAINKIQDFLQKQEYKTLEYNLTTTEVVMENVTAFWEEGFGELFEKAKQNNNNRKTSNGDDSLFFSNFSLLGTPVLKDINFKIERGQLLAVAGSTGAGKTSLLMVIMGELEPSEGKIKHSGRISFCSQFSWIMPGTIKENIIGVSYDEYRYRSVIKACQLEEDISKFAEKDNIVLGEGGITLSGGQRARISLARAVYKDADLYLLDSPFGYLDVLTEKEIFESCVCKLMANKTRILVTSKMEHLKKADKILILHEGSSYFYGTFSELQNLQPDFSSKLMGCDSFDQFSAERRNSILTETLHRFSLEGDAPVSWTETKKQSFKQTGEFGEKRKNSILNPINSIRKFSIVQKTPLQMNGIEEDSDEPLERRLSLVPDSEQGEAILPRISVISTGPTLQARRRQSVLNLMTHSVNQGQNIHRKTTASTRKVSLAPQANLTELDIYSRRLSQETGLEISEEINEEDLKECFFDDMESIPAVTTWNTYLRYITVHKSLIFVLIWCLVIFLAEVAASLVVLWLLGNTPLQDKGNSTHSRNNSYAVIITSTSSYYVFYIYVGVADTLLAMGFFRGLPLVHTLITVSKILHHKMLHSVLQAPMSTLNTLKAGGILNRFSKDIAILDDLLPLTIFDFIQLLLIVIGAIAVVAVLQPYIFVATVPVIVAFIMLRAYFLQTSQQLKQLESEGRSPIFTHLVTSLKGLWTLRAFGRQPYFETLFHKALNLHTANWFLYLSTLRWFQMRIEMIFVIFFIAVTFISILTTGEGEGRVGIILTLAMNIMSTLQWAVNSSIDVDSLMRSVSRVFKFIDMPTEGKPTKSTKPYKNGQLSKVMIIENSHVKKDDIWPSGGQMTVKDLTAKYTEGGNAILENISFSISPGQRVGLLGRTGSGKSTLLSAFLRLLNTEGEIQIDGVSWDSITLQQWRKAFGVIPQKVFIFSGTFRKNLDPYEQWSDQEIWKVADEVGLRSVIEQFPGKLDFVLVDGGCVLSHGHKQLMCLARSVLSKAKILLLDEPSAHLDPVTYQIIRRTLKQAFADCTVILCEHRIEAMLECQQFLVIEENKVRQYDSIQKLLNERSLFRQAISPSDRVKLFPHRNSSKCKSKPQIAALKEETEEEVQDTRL
quantity: EC50 (nM)
Provide only the numeric value, understood in nM.

- compound: "CC(=O)Nc1ccc(-c2cc(C(=O)NS(C)(=O)=O)nc3c2c(C(C)C)nn3C2CCCCC2)cc1 [Compound 79]"
  unitsSymbol: "nM"
  EC50: 1230
- compound: "CN(C)S(=O)(=O)NC(=O)c1cc(N2CCC(N3CCOC(C)(C)C3)CC2)c2c(C3CCC3)nn(-c3ccc(F)cc3)c2n1 [Compound 573]"
  unitsSymbol: "nM"
  EC50: 104
- compound: "CC(C)c1nn(-c2cccc(N3CCOCC3)c2)c2nc(C(=O)NS(C)(=O)=O)cc(-c3ccc(N(C)C4CCOCC4)cc3)c12 [Compound 97]"
  unitsSymbol: "nM"
  EC50: 399
- compound: "COCC1CCN(c2cc(C(=O)NS(C)(=O)=O)nc3c2c(C2CCC2)nn3-c2ccnc(C3CCOCC3)c2)CC1 [Compound 473]"
  unitsSymbol: "nM"
  EC50: 70.8
- compound: "COCCS(=O)(=O)NC(=O)c1cc(-c2ccc(N3CCOCC3)cc2)c2cnn(-c3ccccc3)c2n1 [Compound 233]"
  unitsSymbol: "nM"
  EC50: 2440

The compound listed as O=C(NS(=O)(=O)CCO)c1cc(N2CCC(CCN3CCOCC3)CC2)c2c(C3CCC3)nn(-c3ccc(F)cc3)c2n1 [Compound 491] has a reported EC50 of 248

The compound listed as CCOCC1(F)CCN(c2cc(C(=O)NS(C)(=O)=O)nc3c2c(C2CCC2)nn3-c2ccccc2)CC1 [Compound 501] has a reported EC50 of 211

* * *

target: ΔF508-CFTR (Homo sapiens, UniProt P13569, DEL508-508); construct: host or cells: CFBE41o-, doxycycline-inducible; assay: CFTR cell surface levels using HRP-tagged ΔF508-CFTR expressing CFBE cells, in the presence of a co-corrector; assay type: cell-based; conditions: HRP-tagged ΔF508-CFTR CFBE cells, in the presence of 3 μM co-corrector
% Activation reference
Provide only the numeric value, understood in %.

- compound: "CCS(=O)(=O)NC(=O)c1cc(-c2ccc(N3CCOCC3)cc2)c2c(C)nn(-c3cccc(F)c3)c2n1"
  % Activation, %: 456.6
- compound: "COc1cc(F)cc(-n2nc(C)c3c(-c4c(F)cc(OC)cc4F)cc(C(=O)NS(C)(=O)=O)nc32)c1"
  % Activation, %: 307.3
- compound: "COCC1CCN(c2cc(C(=O)NS(=O)(=O)N3CCN(C4CC4)CC3)nc3c2c(C2CCC2)nn3-c2ccc(F)cc2)CC1"
  % Activation, %: 414.2

Consider now this further compound.
The compound listed as CC(C)c1nn(-c2ccc(F)cc2)c2nc(C(=O)NS(C)(=O)=O)cc(N3CCC4(CCCO4)CC3)c12 has a reported % Activation of 290.53

* * *

biological target: ΔF508-CFTR (Homo sapiens, UniProt P13569, DEL508-508); construct: host or cells: CFBE41o-, doxycycline-inducible; assay: CFTR cell surface levels using HRP-tagged ΔF508-CFTR expressing CFBE cells, intrinsic corrector capacity; assay type: cell-based; parameters: concentration or dose not given beside the values; details: HRP-tagged ΔF508-CFTR expressing CFBE41o- cells; compound alone (intrinsic corrector capacity); 20 hours at 33° C.
% Activation reference
Dear colleague, please send the value followed by its unit.

- compound: "COC(=O)N1CCC2CN(c3cc(C(=O)NS(C)(=O)=O)nc4c3c(C3CCC3)nn4-c3ccccc3)CCC21 (centres unmarked)"
  assaySystem: "ΔF508-CFTR (Homo sapiens, UniProt P13569, DEL508-508)"
  quantity: "% Activation"
  recordedResult: "374.57%"
- compound: "COCC1CCN(c2cc(C(=O)NS(=O)(=O)N3CCCN(C(C)=O)CC3)nc3c2c(C2CCC2)nn3-c2ccccc2)CC1"
  assaySystem: "ΔF508-CFTR (Homo sapiens, UniProt P13569, DEL508-508)"
  quantity: "% Activation"
  recordedResult: "194.35%"
- compound: "COCC1CCN(c2cc(C(=O)NS(=O)(=O)C3CCN(C(=O)OCc4ccccc4)C3)nc3c2c(C2CCC2)nn3-c2ccccc2)CC1 (centres unmarked)"
  assaySystem: "ΔF508-CFTR (Homo sapiens, UniProt P13569, DEL508-508)"
  quantity: "% Activation"
  recordedResult: "261.3%"

Consider now this further compound.
Test item CCS(=O)(=O)NC(=O)c1cc(-c2cnc(N3CCOCC3)nc2)c2c(C(C)C)nn(-c3ccccc3)c2n1 ; ΔF508-CFTR (Homo sapiens, UniProt P13569, DEL508-508); reported % Activation was 254.85%

* * *

biological target: ΔF508-CFTR (Homo sapiens, UniProt P13569, DEL508-508); construct: host or cells: CFBE41o-, doxycycline-inducible; test: CFTR cell surface levels using HRP-tagged ΔF508-CFTR expressing CFBE cells, intrinsic corrector capacity; format: cell-based; parameters: concentration or dose not given beside the values; details: HRP-tagged ΔF508-CFTR expressing CFBE41o- cells; compound alone (intrinsic corrector capacity); 20 hours at 33° C.
Classify as follows. Reported % Activation greater than or equal to 200%: y. Reported % Activation below: n.

As a guide, the following entries are already answered.
- molecule: "Cc1cccc(-n2nc(C(C)C)c3c(N4CCC(S(C)(=O)=O)CC4)cc(C(=O)NS(C)(=O)=O)nc32)c1 [Compound 165]"
  answerLabel: "y"
- molecule: "CN(C)S(=O)(=O)NC(=O)c1cc(N2CCC(N3CCCC(C(F)(F)F)C3)CC2)c2c(C3CCC3)nn(-c3ccc(F)cc3)c2n1 (stereo not drawn) [Compound 571]"
  answerLabel: "y"
- molecule: "CN(C)S(=O)(=O)NC(=O)c1cc(N2CCC(N3CCN(C4CC4)CC3)CC2)c2c(C3CCC3)nn(-c3ccc(F)cc3)c2n1 [Compound 583]"
  answerLabel: "y"
- molecule: "CCS(=O)(=O)NC(=O)c1cc(-c2ccc(OC)cc2)c2c(C)nn(-c3ccccc3)c2n1 [Compound 15]"
  answerLabel: "n"

IN: Dear colleague, could you confirm whether CC(C)c1nn(-c2cccc(N(C)C)c2)c2nc(C(=O)NS(C)(=O)=O)cc(-c3cnc(N4CCOCC4)nc3)c12 [Compound 59] has % Activation at or above 200%?
OUT: y

* * *

biological target: ΔF508-CFTR (Homo sapiens, UniProt P13569, DEL508-508); construct: host or cells: CFBE41o-, doxycycline-inducible; assay: CFTR cell surface levels using HRP-tagged ΔF508-CFTR expressing CFBE cells, in the presence of a co-corrector; type: cell-based; conditions: HRP-tagged ΔF508-CFTR CFBE cells, in the presence of 3 μM co-corrector
Field: label. Allowed values: 1 (% Activation < 400%) or 0 (% Activation >= 400%).

As a guide, the following entries are already answered.
- smilesInput: "CC(C)c1nn(C2CCCCC2)c2nc(C(=O)NS(C)(=O)=O)cc(-c3cnc(N(C)C4CCOCC4)nc3)c12"
  answerLabel: 1
- smilesInput: "COCCN(C)c1ccc(-c2cc(C(=O)NS(C)(=O)=O)nc3c2c(C(C)C)nn3-c2cccc(N3CCOCC3)c2)cn1"
  answerLabel: 0
- smilesInput: "CCCN(C)S(=O)(=O)NC(=O)c1cc(N2CCC(N3CCOCC3)CC2)c2c(C3CCC3)nn(-c3ccccc3)c2n1"
  answerLabel: 0
- smilesInput: "CN(C)S(=O)(=O)NC(=O)c1cc(N2CCC(N3CCOCC3)CC2)c2c(C3CCC3)nn(-c3ccnc(OC(F)F)c3)c2n1"
  answerLabel: 1
- smilesInput: "CCOC(=O)N1CCC(NS(=O)(=O)NC(=O)c2cc(OCC3CCOCC3)c3c(C4CCC4)nn(-c4ccccc4)c3n2)CC1"
  answerLabel: 1
- smilesInput: "CS(=O)(=O)NC(=O)c1cc(OCCCN2CCCCC2)c2c(C3CCC3)nn(-c3ccccc3)c2n1"
  answerLabel: 1

Attention now turns to another entry.
IN: Is % Activation strictly under 400% for the entry COCCS(=O)(=O)NC(=O)c1cc(N2CCC(N3CCOCC3)CC2)c2c(C3CCC3)nn(-c3ccccc3)c2n1 ?
OUT: 0

* * *

target: ΔF508-CFTR (Homo sapiens, UniProt P13569, DEL508-508); construct: host or cells: CFBE41o-, doxycycline-inducible; test: CFTR cell surface levels using HRP-tagged ΔF508-CFTR expressing CFBE cells, in the presence of a co-corrector; format: cell-based; conditions: HRP-tagged ΔF508-CFTR CFBE cells, in the presence of 3 μM co-corrector
% Activation reference
Provide only the numeric value, understood in %.

- smilesInput: "CC(C)c1nn(-c2cccc(N(C)C)c2)c2nc(C(=O)NS(C)(=O)=O)cc(-c3ccc(N4CCC(C#N)CC4)cc3)c12"
  assaySystem: "ΔF508-CFTR (Homo sapiens, UniProt P13569, DEL508-508)"
  % Activation (%): 646.44
- smilesInput: "CN1CCN(C(=O)[C@@H]2CCCN2S(=O)(=O)NC(=O)c2cc(OCC3CCOCC3)c3c(C4CCC4)nn(-c4ccccc4)c3n2)CC1"
  assaySystem: "ΔF508-CFTR (Homo sapiens, UniProt P13569, DEL508-508)"
  % Activation (%): 158.4

Consider now this further compound.
The compound listed as CN(C)S(=O)(=O)NC(=O)c1cc(OCC2CCN(C3CCOCC3)CC2)c2c(C3CCC3)nn(-c3ccc(F)cc3)c2n1 has a reported % Activation of 277.25
